Recorded Endpoint: pKi
On this scale, pKi is minus log10 of a concentration expressed in M (mol/L).

Req: Report value: pKi, system: Sodium-dependent serotonin transporter (Homo sapiens, UniProt P31645), compound: CN(C)CCC(Oc1ccccc1)c1ccc(OCCCN2CCCCC2)cc1 (configuration not stated)
Sequence (P31645 whole entry): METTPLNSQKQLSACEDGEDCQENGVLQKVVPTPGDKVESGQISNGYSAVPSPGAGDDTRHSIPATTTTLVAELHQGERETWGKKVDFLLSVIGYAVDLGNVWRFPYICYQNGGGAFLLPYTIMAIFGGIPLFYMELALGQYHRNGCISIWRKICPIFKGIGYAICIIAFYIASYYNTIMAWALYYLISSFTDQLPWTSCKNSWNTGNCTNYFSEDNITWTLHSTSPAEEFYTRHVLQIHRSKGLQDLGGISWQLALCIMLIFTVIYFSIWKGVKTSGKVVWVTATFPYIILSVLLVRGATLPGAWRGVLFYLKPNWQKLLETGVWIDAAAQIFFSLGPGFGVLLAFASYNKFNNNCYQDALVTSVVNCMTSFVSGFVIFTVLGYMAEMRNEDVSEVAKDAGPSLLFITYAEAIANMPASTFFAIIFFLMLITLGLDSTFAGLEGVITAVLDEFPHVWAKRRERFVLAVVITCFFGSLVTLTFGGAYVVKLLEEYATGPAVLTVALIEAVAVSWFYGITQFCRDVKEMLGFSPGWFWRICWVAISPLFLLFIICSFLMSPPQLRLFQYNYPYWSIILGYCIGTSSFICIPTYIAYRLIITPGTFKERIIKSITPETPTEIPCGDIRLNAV
Resp: 7.59

Req: Recall the reported pKi of CSc1ccc(C2CN(C)Cc3cc(Oc4nc(CN5CCOCC5)cs4)ccc32)cc1 (configuration not stated) when tested on Sodium-dependent serotonin transporter (Homo sapiens, UniProt P31645).
Resp: 7.81

----------
Experimental System: Sodium-dependent serotonin transporter (Rattus norvegicus, UniProt P31652)
Sequence (P31652 whole entry): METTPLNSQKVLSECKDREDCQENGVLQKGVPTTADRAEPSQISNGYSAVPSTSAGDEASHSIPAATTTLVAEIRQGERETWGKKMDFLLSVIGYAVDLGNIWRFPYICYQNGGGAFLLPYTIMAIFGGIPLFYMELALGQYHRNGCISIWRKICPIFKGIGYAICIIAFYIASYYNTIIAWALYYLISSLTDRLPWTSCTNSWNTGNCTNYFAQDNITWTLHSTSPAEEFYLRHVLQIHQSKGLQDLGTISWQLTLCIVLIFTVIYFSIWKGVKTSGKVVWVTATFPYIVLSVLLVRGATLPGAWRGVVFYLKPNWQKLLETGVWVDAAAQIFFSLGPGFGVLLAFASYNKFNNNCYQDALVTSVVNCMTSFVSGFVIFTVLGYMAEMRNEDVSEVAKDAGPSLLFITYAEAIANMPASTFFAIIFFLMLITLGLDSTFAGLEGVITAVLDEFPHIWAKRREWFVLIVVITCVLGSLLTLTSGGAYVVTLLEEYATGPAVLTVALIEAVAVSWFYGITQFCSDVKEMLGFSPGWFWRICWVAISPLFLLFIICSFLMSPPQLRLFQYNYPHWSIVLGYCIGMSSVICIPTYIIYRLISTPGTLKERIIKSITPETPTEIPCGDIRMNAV
Recorded Endpoint: Ki (nM)
The reply should contain only the number, in nM.

Req: Please indicate recorded Ki of CSc1ccc(C2CN(C)Cc3cc(Oc4cncc(CN5CCCCC5)c4)ccc32)cc1 (stereo unspecified) measured with Sodium-dependent serotonin transporter (Rattus norvegicus, UniProt P31652).
Resp: 9.7
